experiment: soluble on expression in E. coli; label from the status in PepcDB or PDB records

sequence-chain | soluble on expression in E. coli
MGVEIQSPQEQSSYTVEQLVALNPFNPEILPDLENYVNVTSQTYSLEVNLCLLRLYQFEPERMNTHIVARILVKALMAMPTPDFSLCLFLIPERVQMEEQFKSLIVLSHYLETGRFQQFWDEAAKNRHILEAVPGFEQAIQAYASHLLSLSYQKVPRSVLAEAVNMDGASLDKFIEQQVTNSGWIVEKEGGSIVLPQNEFNHPELKKNTGENVPLEHIARIFPILG | not soluble
MKEDWYRKMYGPSASKTYETSLFNLITSEFGYIGGPDVVKLFTKKIVELNNQYYLREEFVRPGQMRWLVLKAGQKYSKSKKLSEMQLIPVTLTLINPEDIEDRITKVKKNELIEKLIVRLCNETKEQGGVLTETDIAILFRLSCTMISNHVTSYEKRTKKVIPRAGTEMDMGKSLTHKRLAFHNYKKKIPTSENARLIDHTPESVDRYIKDGTRIEKLYAAGYDEWNMAFFTGLPIYVVQEYVEIIKSYEKEKNDKKDIENQ | not soluble
MGSDKIHHHHHHMEHTYRLVISCPDRVGIVAKVSNFLSTYNGWITEASHHSDTQAGWFFMRHEIKAESIPFGLDQFRAAFEPIAREFNMNWHIADSARPKRVILMCSKESHCLADLLHRWHSKELNCEIVAVISNHDDLRRMVEWHEIPYHHVPVSKENKAEAFAHIDELFQQYETDVVVLARYMQILPAELCGKYSGKVINIHHSFLPSFAGARPYHQAYSRGVKLIGATCHYVTQDLDEGPIIEQDVIRISHSDSIEDMVRLGKDVEKNVLARGLRSHIEDRVITYENKTVVFD | not soluble
MMRWIRHMFAPSAHRSFPPRSMDSIAAAIAASEQLHTGQVMVAVEADLSAAALWRGHGARQRAEQAFAQLRTWDTEANNGVLIYLLLADHAIEVVADRGLRALVPDAAWAEVCRRMQQFLRDGQHEAAVLAGVEAVTELLCAHFPAAAQAQHEDELPNRPHILGLEHHHHHH | soluble
MGSDKIHHHHHHAATSNKKNTIKLISTNNNIKIPVYDRQGKQINGFTVESGANVTVIGKPIIVQQKYRKDVFEGIKINGKTYASLGDGGYIPINATGVITSKGMKITRDTAVYNKNGKKLSTYRGHTATLKKDSIVKYGGATTYTIPVSYFNIGNGRYVRASYVQEYNGQTVLTLNYNTFVYNKKGKRINYDGQRKLMNGGVVTTNSKIREAKSSDQNYFYSSANYTDKNKLAFTTTKIKGQDYLSIGKGEYIKIANVKTANGMILFTKGPITITLPSDTTIYSSNFKETKKQIAAGKKVILDKTEIDNSLSDPQLYFRIKGTNELIYWGDLGEYPGVDHTAVYDPNYYSIYSFPLRQFME | not soluble
MAFSMLFTGHAECVKFVKKFNLPLLVTGGGGYTKENVARCWTVETGILLDTELPNEISENDYIKYFAPDFSLKIPGGHIENLNTKSYISSIKVQILENLRYIQHAPSVQMQEVPPDFYIPDFDEDEQNPDVRVDQRSRDKQIQRDDEYFDGDNDNDAS | not soluble
MGSDKIHHHHHHMTWRIVHIHQSEKMRLKLDNLVIKKQGDEFTIPLSDISIIVAEGGDTVVTLRLLSALSKYNIALIVCDNHHLPTGIYHSQNGHFRAYKKLQAQLSWAPLQKDKLWQIIIYFKITNQQDVLAMQEKSLSTIQLLSDYREHIELGDRTNREGHAAKVYFNELFGKQFVRLTQQETDAVNAGLNYGYTIFRAQMARIIAGYGLNALIGIFHKNEYNQFNLADDLMEPFRQIVDVWVYMNLREADFLTYQHRLELTNLLNAKIRYGKENCSVTVAMDKFVKGFIRCIEDKDTNQFFCPVVSSLEMEKL | not soluble
MSLKVTMEFIANQLGITKNTVSLALRNMPGVSEKTRKEILRTAEKYGYIYKKSNSKNSKSNSRTGSICLMLSNDTKNSVGFFSFIQYGVESEGKRNGLNTILYCFDDNKEFQPPVCIRDGIVSGIITLGRISRKTVSSIISLNLPLVIVDDFFDDIKASYVLTDNLSGGYTATEYLIKSGHRSIGFFGDIFASPSFFDRYMGYLKAHVQYNLPVNSSFSIIDKNMAVLLHEGVDKVVDELKKIPQLPTAMFCCNDVEAIALYKAFSVMGISVPDDISIIGFDDIESSTSVSPELTTMHINKEAMGERAVKKLIEKMNGQESMDEKIVLPVTLIERQSVKREGHHHHHH | soluble
MGSDKIHHHHHHHPCARLSVRMSSTGIDRKGVLANRVAVVTGSTSGIGFAIARRLARDGAHVVISSRKQQNVDRAMAKLQGEGLSVAGIVCHVGKAEDREQLVAKALEHCGGVDFLVCSAGVNPLVGSTLGTSEQIWDKILSVNVKSPALLLSQLLPYMENRRGAVILVSSIAAYNPVVALGVYNVSKTALLGLTRTLALELAPKDIRVNCVVPGIIKTDFSKVFHGNESLWKNFKEHHQLQRIGESEDCAGIVSFLCSPDASYVNGENI | not soluble
MGSDKIHHHHHHMLDSLFPIKRNYLDRNGHKLQYVNEGQGEPVVMVHGNPSWSFYYRNLVTALSPNHQCIVPDHIGCGLSDKPDDAGYDYTLKNRIDDLEALLDHLEVKEKITLIVHDWGGMIGMGYAARHPERIKKIVVLNTGAFHLPEAKPFPWALWICRNTLLGTVLVRGFNAFSSIASYVGVKRAPMPKAIREAYVAPFNSWANRISTLRFVQDIPLKPGDRNYELVSEISEKLNQFNQLPMMICWGLKDFVFDKHFLDEWKRRFPEAEVHEFADCGHYILEDASDEVVAQVQQFMAR | not soluble
AFRGLRKGQFFDENALMLIATIAAFFVGAYEESVSIMVFYSAGEFLQKLAVSRSKKSLKALVDVAPNLAYLKKGDELVSVAPEDLRVNDIVVVKVGEKVPVDGVVVKGESLLDERALSGESMPVNVSENSKVLGGSLNLKAVLEIQVEKMYKDSSIAKVVDLVQ | not soluble

---

assay: soluble on expression in E. coli; label from the status in PepcDB or PDB records

sequence-chain | soluble on expression in E. coli
MGSDKIHHHHHHMSYLLRKPQSHEVSNGVKLVHEVTTSNSDLTYVEFKVLDLASGSSYTEELKKQEICIVAVTGKITVTDHESTFENIGTRESYFERKPTDSVYISNDRAFEITAVSDARVALCYSPSEKQLPTKLIKAEDNGIEHRGQFSNKRTVHNILPDSDPSANSLLVVEVYTDSGNWSSYPPHKHDQDNLPEESFLEETYYHELDPGQGFVFQRVYTDDRSIDETMTVGNENVVIVPAGYHPVGVPDGYTSYYLNVMAGPTRKWKFYNDPAHEWILER | not soluble
MGSDKIHHHHHHMKRAVVVFSGGQDSTTCLIQALQDYDDVHCITFDYGQRHRAEIEVAQELSQKLGAAAHKVLDVGLLNELATSSLTRDSIPVPDYDANAQGIPNTFVPGRNILFLTLASIYAYQVGAEAVITGVCETDFSGYPDCRDEFVKALNQAIVLGIARDIRFETPLMWLNKAETWALADYYQQLDTVRYHTLTCYNGIKGDGCGQCAACHLRANGLAQYQKDAATVMASLKQKVGLR | not soluble
MSLKIYGVYRSRASRPLWLLAELDLPFEHVPVIQANRVAHPHGPEAPLNTASAAYLAVNPLGQIPCLEEEGLILTESLAITLHIARTQGGQLGPRSEPEDALMVSWSLFAATAVEPPALEIQLIQRSGGGTSPEGQAAIAIAAERLRRPLARLERHFAAEDYLVGGRFTVADLNLAETLRYGQAHPALLEPFPAVAAWLDRCQSRPAFRLMMERRAAEGHHHHHH | soluble
SNSALYNVDAGHRAVIFDRFRGVQDIVVGEGTHFLIPWVQKPIIFDCRSRPRNVPVITGSKDLQNVNITLRILFRPVASQLPRIYTSIGEDYDERVLPSITTEILKSVVARFDAGELITQRELVSRQVSDDLTERAATFGLILDDVSLTHLTFGKEFTEAVEAKQVAQQEAERARFVVEKAEQQKKAAIISAEGDSKAAELIANSLATAGDGLIELRKLEAAEDIAYQLSRSRNITYLPAGQSVLLQLPQ | soluble
GAVDLNDDVLDMGTGLRMQLYQCGDPRGRPVLYLHGMLDGMAPLEYLKHDFARRGLRVLAPVRPGYGLSEPVAGVEPGLRAMASHAVELIDRFALDRVAILGHMAGAVTGYVLRAGGDPRLAGMVAVAASGPLLRRAQLSGMARRQRMMAMTARWTPALLPFFVRAGIALIDSEEVGRFMDALYPPGSHERQVVDRLELAALMHAGYRFAAQSGTAGFEADALTMVSPWQRLSDGGTCPVVHLHGALDPVVPAAETARFAASISGASFRRFEDVGQFLIYERPDAVLDAIEAMLPPR | not soluble
GAMAQKNEDECAVCRDGGELICCDGCPRAFHLACLSPPLREIPSGTWRCSSCLQATVQEVQPRAEE | soluble
MGSDKIHHHHHHMIYLDQAASSFPKPKEVAEAMVAAVNEYGANPGRGGHRLATQARVTIDETRELLKTLFNAPSKKHVWFYQNATGALNQALFGFPFKEGDHVVSTALEHNSVRRPLEQLRERNGLVITYAQPDEEGIISPEKIAQACTDQTKAIVLSHGSNVTGAYLELEKIGEMAEAHGIVFIVDASQTAGVIDIDMKRDRISMLACAGHKGLLGPQGTGVLIVADDYGLTPLSYGGTGSYSELIDQPSQWPDRYESGTLNTPGIAGLKAGIEYVLDNGVAQIFAHEWALTERLLKGLGAQKVDVYGPPLPRKRLGVVSFRLSGFDSHEVALILDEHYQIAVRAGLHCAPMTHETLQTTDTGLIRVSVGPFNTEREVDQLLQAVMDIQQAFTS | not soluble
MGSDKIHHHHHHMKRIGIIAAWQPELNYLHEEYPSRKVRKIAAWEFHYHSINNLEIISVISGVGKTNCSSCTQLLISEFRPDEIYMTGICGSLSDSIKGGEIVIARQMLQHDVTNAGKGDDVWDLYTGRTSIIDGDNSIFSDFLNFAINTSEHKINNGMFISGDQRIREDVLRSSLSSTHNAIAVDQEIASFSYVSYVNKIPFLCVKSVSDQADNKTIEDQKRFKLLACENSCKLLIEFLLR | not soluble
MGSDKIHHHHHHMVAIEKGGARLVFAPEVGGAVAAFTVDGREVLRPTAPQVDDALLTANFPLVSFCNRIPNGRFEWRGTSVTLPPNLEGHPHPLHGQGWRMPWAVEAIETDRALLVFEHPAGDWPWAYRAEQAFTLSETGFRVTLTVINTGEEDMPAGLGFHPYFPARPGERLAAQNDGVWLIDEDVLPTVRHAGRWGPDWAVGAPVAGHALIDHCYTGWNQRAVLSAPGRPDTVITASPDCAWLHVYAPPGEGYYCVEPCASRPNPFGEGETGMVTLCPGERRSIWMEIATG | not soluble
MKKTKFSSYEEYRNYFKRLIDLERRAQTELHLKEIKTLSGKEREKRGRAILNLRAKFLGRGLGGVYLVRYSRPQGLPKTEISTGDIVLVSKGKPTVKEVQGTVAEKTNYYLVVAFRDKPPPYALGKDVRIDLFSNEITFKRMEEALKNFKEHPLRDFILGKKVLEHHHHHH | soluble
MTKLPQTQGVLNFIQKYLYNSTNYNFEDGSTQAINVPYPDSGVYENYILHYPDATSTELLDINIDQLYSEVMVLTDPKIERAYEYILEERDPGTSSTNILVTVGVE | not soluble
MGSDKIHHHHHHMAITIQFSNYALKTDETLIQRIQFVYSPLNELFRSLHVLLNPRHHGTNIDWVIRIQNKLTKEFYENLHYFRLFYELGVSPILLCNFRYHATTIEEEIQNLKKFLDELSTAQLIEHLEKVTSDRENSFIPTLARGLEWKDFSLNKDNQLLSDLRKDASSVYQHLFSFVDWYRQEIFDETWESKDIQRKLLTEIQHQASFLKESGFKAMFNHLQIDRIHWRKDRLVIIKPFDKDIQLKDSDSIMLLPSYFIWPHLFVESFNQGIAVTYDITEQPSYYNATPENLITIFKALSDPVRLQIMNYVIDKPSTTQSLAQILVMSNSSVSRHLQILKEANLLTTTKAKKFVLYEPTQLITQLMPNFYHFFKN | not soluble

src = the DeepSol protein solubility set
